Experiment Notes: physchem
Measurement Conditions: 25 °C, water, thermodynamic from solid
Result Type: solubility at 30 min

Form: compound = CN[C@H](CC(C)C)C(=O)N[C@@H]1C(=O)NC(CC(N)=O)C(=O)NC2C(=O)NC3C(=O)N[C@H](C(=O)NC(C(=O)O)c4cc(O)cc(O)c4-c4cc3ccc4O)[C@H](OC3CC(C)(N)C(O)C(C)O3)c3ccc(c(Cl)c3)Oc3cc2cc(c3OC2OC(CO)C(O)C(O)C2OC2CC(C)(NCC(OCc3ccc(Cl)cc3)C(=O)O)C(O)C(C)O2)Oc2ccc(cc2Cl)C1O (some centres unmarked) [Compound V62] ; solubility at 30 min = 5 to 20 mg/mL

Lookup result for CCCCOC(CNC1(C)CC(OC2C(Oc3c4cc5cc3Oc3ccc(cc3Cl)[C@@H](O)[C@@H]3NC(=O)C(NC(=O)[C@@H]5NC(=O)[C@H](CC(N)=O)NC(=O)C(NC(=O)[C@@H](CC(C)C)NC)[C@H](O)c5ccc(c(Cl)c5)O4)c4ccc(O)c(c4)-c4c(O)cc(O)cc4[C@H](C(=O)O)NC3=O)OC(CO)C(O)C2O)OC(C)C1O)C(=O)O (some centres unmarked) [Compound V19] ; measured solubility at 30 min: 50 to 60 mg/mL

* * *

Reported solubility at 30 min values are given for each entry in this list.
Experiment Notes: physchem
Measurement Conditions: 25 °C, water, thermodynamic from solid
The figure you give is taken to be in µg/mL; do not add the unit.

| Molecule | solubility at 30 min, µg/mL |
| --- | --- |
| CN[C@H](CC(C)C)C(=O)N[C@@H]1C(=O)NC(CC(N)=O)C(=O)NC2C(=O)NC3C(=O)N[C@H](C(=O)NC(C(=O)O)c4cc(O)cc(O)c4-c4cc3ccc4O)[C@H](O)c3ccc(c(Cl)c3)Oc3cc2cc(c3OC2OC(CO)C(O)C(O)C2OC2CC(C)(NCC(OC)C(=O)OC)C(O)C(C)O2)Oc2ccc(cc2Cl)C1O (some centres unmarked) [Compound V26] | 4500 |

Now consider the entry below.
// CCOC(CNC1(C)CC(OC2C(Oc3c4cc5cc3Oc3ccc(cc3Cl)[C@@H](O)[C@@H]3NC(=O)C(NC(=O)C5NC(=O)C(CC(N)=O)NC(=O)[C@@H](NC(=O)[C@@H](CC(C)C)NC)C(O)c5ccc(c(Cl)c5)O4)c4ccc(O)c(c4)-c4c(O)cc(O)cc4C(C(=O)O)NC3=O)OC(CO)C(O)C2O)OC(C)C1O)C(=O)OC (some centres unmarked) [Compound V33] : solubility at 30 min value = 5000

* * *

Experiment Notes: physchem
Measurement Conditions: 25 °C, water, thermodynamic from solid
Result Type: solubility at 30 min

Below are worked cases with known answers.
| Compound | solubility at 30 min |
| --- | --- |
| CCCCCCCCCCOC(CNC1(C)CC(OC2C(Oc3c4cc5cc3Oc3ccc(cc3Cl)[C@@H](O)[C@@H]3NC(=O)C(NC(=O)C5NC(=O)C(CC(N)=O)NC(=O)[C@@H](NC(=O)[C@@H](CC(C)C)NC)C(O)c5ccc(c(Cl)c5)O4)c4ccc(O)c(c4)-c4c(O)cc(O)cc4C(C(=O)O)NC3=O)OC(CO)C(O)C2O)OC(C)C1O)C(=O)O (stereo partly drawn) | 5000 to 10000 µg/mL |
| CCCCCCCCCCOC(CNC1(C)CC(OC2C(Oc3c4cc5cc3Oc3ccc(cc3Cl)[C@@H](OC3CC(C)(N)C(O)C(C)O3)[C@@H]3NC(=O)C(NC(=O)C5NC(=O)C(CC(N)=O)NC(=O)[C@@H](NC(=O)[C@@H](CC(C)C)NC)C(O)c5ccc(c(Cl)c5)O4)c4ccc(O)c(c4)-c4c(O)cc(O)cc4C(C(=O)O)NC3=O)OC(CO)C(O)C2O)OC(C)C1O)C(=O)O (stereo partly drawn) | 5000 to 10000 µg/mL |

--- query ---
In plain terms, CCCCOC(CNC1(C)CC(OC2C(Oc3c4cc5cc3Oc3ccc(cc3Cl)[C@@H](O)[C@@H]3NC(=O)C(NC(=O)C5NC(=O)C(CC(N)=O)NC(=O)[C@@H](NC(=O)[C@@H](CC(C)C)NC)C(O)c5ccc(c(Cl)c5)O4)c4ccc(O)c(c4)-c4c(O)cc(O)cc4C(C(=O)O)NC3=O)OC(CO)C(O)C2O)OC(C)C1O)C(=O)OC (stereo partly drawn) has a documented solubility at 30 min of ≥ 60000 µg/mL
